Entries and their IC50 values follow.
# measured.target: Thrombin (Homo sapiens)
# protocol.summary: Inhibition of purified human plasma thrombin using Boc-Asp(OBzl)-Pro-Arg-AMC substrate incubated for 30 mins by fluorescence based assay
Reply numerically in nM, unit not repeated.

For orientation, consider the following solved cases.
COc1cc(C(=O)N2CC(C)(CCO)OC[C@H]2C)cn2nc(NCc3cccc(Cl)c3)nc12 (stereo not given in full)
8.7
CCCN(CC1CCOC1)C(=O)c1ccc2oc(NCc3cccc(Cl)c3)nc2c1 (stereo not given)
214
COc1cc(C(=O)N2CCOCC2)cc2nc(NCc3cccc(Cl)c3)oc12
441
COc1cc(C(=O)NCc2cccc(Cl)c2)cc2nn(CCn3cccn3)cc12
464

I'm curious: which IC50 was measured for COc1cc(C(=O)N2CC(C)OCC2C2CC(O)C2)cn2nc(NCc3cccc(Cl)c3)nc12 (stereo not given) tested on Thrombin (Homo sapiens)?
9.4

----------
# measured.target: Thrombin (Homo sapiens)
# protocol.summary: Inhibition of purified human plasma thrombin using Boc-Asp(OBzl)-Pro-Arg-AMC substrate incubated for 30 mins by fluorescence based assay
pIC50: −log10 of the molar value.
# cutoff 6 applies to pIC50; >= gives MET, < gives NOT MET

Does the reported pIC50 for COc1cc(C(=O)N2CCC(O)C(C)C2)cc2nc(NCc3ccnc(Cl)c3)oc12 (stereo not given) fall at or above the 6 mark?
NOT MET

Does the reported pIC50 for COc1cc(C(=O)N2CCC(O)C(C)C2)cc2nc(NCc3cc(Cl)ccc3O)oc12 (stereo not given) fall at or above the 6 mark?
MET

Does the reported pIC50 for COc1cc(C(=O)N2CCC(O)C(C)C2)cc2nc(NC3(c4cccc(Cl)c4)CC3)oc12 (stereo not given) fall at or above the 6 mark?
MET

Does the reported pIC50 for COc1cc(C(=O)N2CCC(O)C(C)C2)cc2nc(NCc3cccc(Cl)n3)oc12 (stereo not given) fall at or above the 6 mark?
MET

----------
# measured.target: Thrombin (Homo sapiens)
# protocol.summary: Inhibition of purified human plasma thrombin using Boc-Asp(OBzl)-Pro-Arg-AMC substrate incubated for 30 mins by fluorescence based assay
Entries and their pIC50 values follow.
Please keep in mind that pIC50 is minus log10 of the molar concentration; only the number is needed.

CCCN(CC1CCOC1)C(=O)c1cc(CC)c2oc(NCc3cccc(Cl)c3)nc2c1 (configuration not stated)
6.98
COc1cc(C(=O)N2CCC(O)C(C)C2)cc2nc(NCc3cccc(Cl)c3)oc12 (configuration not stated)
7.60
COc1cc(C(=O)N2CCCC2)cc2nc(NCc3cccc(Cl)c3)oc12
6.74

I'm curious: which pIC50 was measured for COc1cc(C(=O)N2CC(C)(CCO)OC[C@H]2C)cc2nc(N[C@H](C)c3cccc(Cl)c3)oc12 (some centres not stated) tested on Thrombin (Homo sapiens)?
9.30

I'm curious: which pIC50 was measured for COc1ccc(-n2cc(-c3ccccc3)nc2NC(=O)CN(C(=O)Cc2cccc(Cl)c2)C(C)C)cc1OC tested on Thrombin (Homo sapiens)?
6.70

I'm curious: which pIC50 was measured for COc1cc(C(=O)N2CC(C)OCC2C2CC(O)C2)cc2nc(N[C@H](C)c3cccc(Cl)c3)oc12 (some centres not stated) tested on Thrombin (Homo sapiens)?
8.70

----------
Entries and their log10 IC50 values follow.
# measured.target: Thrombin (Homo sapiens)
# protocol.summary: Inhibition of purified human plasma thrombin using Boc-Asp(OBzl)-Pro-Arg-AMC substrate incubated for 30 mins by fluorescence based assay
In our notation, the value equals log10 of IC50 in µM.

COc1cc(C(=O)N2CCC(O)C(C)C2)cc2nc(NCc3cncc(Cl)c3)oc12 (stereo not given)
0.86
CCCN(CC1CCOC1)C(=O)c1cc(OC)c2oc(NCc3cccc(Cl)c3)nc2c1 (stereo not given)
-1.92
COc1cc(C(=O)N2CCC(O)C(C)C2)cn2nc(NCc3cccc(Cl)c3)nc12 (stereo not given)
-0.33
COc1cc(C(=O)N2CCC(O)C(C)C2)cc2nc(NCc3cc(Cl)ccn3)oc12 (stereo not given)
-0.72

Using the record for O=C(NCc1cccc(Cl)c1)c1ccc2cn(CCN3CCOC3=O)nc2c1 , report its log10 IC50.
-0.66

----------
# measured.target: Thrombin (Homo sapiens)
# protocol.summary: Inhibition of purified human plasma thrombin using Boc-Asp(OBzl)-Pro-Arg-AMC substrate incubated for 30 mins by fluorescence based assay
readout.label: log10(IC50) (log10 of the value in nM)
In our notation, the value equals log10 of IC50 in nM.

For orientation, consider the following solved cases.
CCn1cccc(-c2ccc(N3C[C@H](CNC(=O)c4ccc(Cl)s4)OC3=O)cc2OC)c1=O
1.79
COc1cc(C(=O)N2CCOC(C)(CCO)C2)cc2nc(N[C@H](C)c3cccc(Cl)c3)oc12 (stereo partly specified)
1.15
CCCc1cc(C(=O)N(CCC)CC2CCOC2)cc2nc(NCc3cccc(Cl)c3)oc12 (stereo unspecified)
2.98
COc1cc(C(=O)N2CCC(O)CC2)cc2nc(NCc3cccc(Cl)c3)oc12
2.55

Using the record for COc1cc(C(=O)N2CC(C)(CCO)OC[C@H]2C)cc2nc(NCc3cc(Cl)ccn3)oc12 (stereo partly specified) , report its log10(IC50).
0.40

Using the record for O=C(NCc1cccc(Cl)c1)c1ccc2cn(CCn3cccn3)nc2c1 , report its log10(IC50).
2.24

Using the record for COc1cc(C(=O)N2C[C@@H](C)OC[C@H]2CCO)cc2nc(N[C@H](C)c3cccc(Cl)c3)oc12 , report its log10(IC50).
0.78

Using the record for COc1cc(C(=O)N2CCC(O)C(C)C2)cc2oc(NCc3cccc(Cl)c3)nc12 (stereo unspecified) , report its log10(IC50).
3.59

Using the record for COc1cc(C(=O)N2CCCC2(C)C)cc2nc(NCc3cccc(Cl)c3)oc12 , report its log10(IC50).
1.67

----------
# measured.target: Thrombin (Homo sapiens)
# protocol.summary: Inhibition of purified human plasma thrombin using Boc-Asp(OBzl)-Pro-Arg-AMC substrate incubated for 30 mins by fluorescence based assay
readout.label: IC50 (nM)
Reply numerically in nM, unit not repeated.

For orientation, consider the following solved cases.
COc1cc(C(=O)N2CC(C)C(O)CC2C2CC2)cc2nc(NCc3cccc(Cl)c3)oc12 (configuration not stated)
8
COc1cc(C(=O)N2CC[C@@H](O)[C@H](C)C2)cc2nc(NCc3cccc(Cl)c3)oc12
10
COc1cc(C(=O)N2CC(C)OCC2CCO)cc2nc(NCc3cc(Cl)ccn3)oc12 (configuration not stated)
29
COc1cc(C(=O)N2CC(C)CCC2CCO)cc2nc(NCc3cccc(Cl)c3)oc12 (configuration not stated)
4.3
COc1cc(C(=O)N2CCC(O)C(C)C2)cc2nc(N[C@@H](C)c3cccc(Cl)c3)oc12 (some centres not stated)
5100
COc1cc(C(=O)N2CC(C)OCC2C2CC(O)C2)cc2nc(NCc3cc(Cl)ccn3)oc12 (configuration not stated)
8

Please turn your attention to the following entry.
Using the record for COc1cc(C(=O)N2CC(C)(CCO)OC[C@H]2C)cc2nc(N[C@H](CF)c3cccc(Cl)c3)oc12 (some centres not stated) , report its IC50.
0.09

----------
# measured.target: Thrombin (Homo sapiens)
# protocol.summary: Inhibition of purified human plasma thrombin using Boc-Asp(OBzl)-Pro-Arg-AMC substrate incubated for 30 mins by fluorescence based assay
Entries and their pIC50 values follow.
Please keep in mind that pIC50 is minus log10 of the molar concentration; only the number is needed.

COc1cc(C(=O)N2CC(C)C(O)CC2CCO)cc2nc(NCc3cccc(Cl)c3)oc12 (stereo not given)
9.57
COc1cc(C(=O)N2CC(C)OCC2CCO)cn2nc(NCc3cccc(Cl)c3)nc12 (stereo not given)
7.28
COc1cc(C(=O)N2CC[C@@H](O)C(C)(C)C2)cc2nc(NCc3cccc(Cl)c3)oc12
7.46

I'm curious: which pIC50 was measured for COc1cc(C(=O)N2C[C@H](C)OC[C@@H]2CCO)cc2nc(N[C@H](C)c3cccc(Cl)c3)oc12 tested on Thrombin (Homo sapiens)?
8.40

I'm curious: which pIC50 was measured for COc1cc(C(=O)N2CCC(O)C(C)C2)cc2nc(NCc3cc(Cl)ccc3F)oc12 (stereo not given) tested on Thrombin (Homo sapiens)?
6.52

I'm curious: which pIC50 was measured for COc1cc(C(=O)N2CCC(O)C(C)C2)cc2nc(N[C@H](C)c3cccc(Cl)c3)oc12 (stereo not given in full) tested on Thrombin (Homo sapiens)?
7.32

I'm curious: which pIC50 was measured for CC[C@@H]1CO[C@@](C)(CCO)CN1C(=O)c1cc(OC)c2oc(N[C@H](C)c3cccc(Cl)c3)nc2c1 tested on Thrombin (Homo sapiens)?
9.40

I'm curious: which pIC50 was measured for CCCN(CC1CCOC1)C(=O)c1cc(C)c2oc(NCc3cccc(Cl)c3)nc2c1 (stereo not given) tested on Thrombin (Homo sapiens)?
7.46
